Assay: Cytotoxicity against rat neonatal microglia assessed as cell viability by lactate dehydrogenase release assay
Conditions: read-out: LD50 (the source's name)

compound	CC50
[C-]#[N+][C@@]12CCC(=C)[C@H]3[C@H](CC(C)(C)NC(=O)CNC(=O)c4ccncc4)C[C@H](C)[C@@H](CC[C@@H]1C)[C@@H]32	> 10 µM
[C-]#[N+][C@@]12CCC(=C)[C@H]3[C@H](CC(C)(C)NC(=O)CN(CCC(C)C)C(=O)c4ccncc4)C[C@H](C)[C@@H](CC[C@@H]1C)[C@@H]32	> 10 µM
[C-]#[N+][C@@]12CCC(=C)[C@H]3[C@H](CC(C)(C)NC(=O)CN(CCNc4ccnc5cc(Cl)ccc45)C(=O)c4ccncc4)C[C@H](C)[C@@H](CC[C@@H]1C)[C@@H]32	5 µM
[C-]#[N+][C@@]12CCC(=C)[C@H]3[C@H](CC(C)(C)NC(=O)C(c4ccccc4)N(CCC(C)C)C(=O)c4ccncc4)C[C@H](C)[C@@H](CC[C@@H]1C)[C@@H]32 (mixture of isomers)	> 10 µM
[C-]#[N+][C@@]12CCC(=C)[C@H]3[C@H](CC(C)(C)NC(=O)CN(CCNc4ccnc5cc(Cl)ccc45)C(C)=O)C[C@H](C)[C@@H](CC[C@@H]1C)[C@@H]32	5 µM
[C-]#[N+]C(C)(C)C[C@@H]1C[C@H](C)[C@H]2CC[C@H](C)[C@@]3([N+]#[C-])CCC(=C)[C@@H]1[C@H]23 [DIISOCYANOAMPHILECTENE]	> 10 µM
